Read-out: CD69, CD69 (gene 969)
assay notes: BSK_SAg_CD69: BioMAP Diversity Plus: SAg Assay for CD69 Biomarker Activity (AID 2283089)
assay setup: primary human HUVEC with PBMC; actives raise or lower the signal
Activity calls are given as the source filed them. How the source made its calls: active means hit-call score of the fitted dose curve at least 0.9, where 1 is the maximum; inactive means score below 0.9.
A correct response names exactly one class from True (active), False (inactive)

Known results for molecules:
[
  {
    "molecule": "Cc1nc(-c2ccc3c(c2)CCN(CCC2CCC(NC(=O)/C=C/c4ccc(F)cc4)CC2)CC3)no1 (configuration not stated)",
    "category label": "False"
  },
  {
    "molecule": "CCCCCCC(=O)OCC",
    "category label": "False"
  },
  {
    "molecule": "CCCCCCCCCCCCCCCC",
    "category label": "False"
  },
  {
    "molecule": "O=C(O)CCCCC(=O)O",
    "category label": "False"
  },
  {
    "molecule": "CCCCc1ccc2c(n1)[C@@H](c1ccc(OC)cc1C[C@H](C)C(=O)O)[C@H](C(=O)O)[C@H]2c1ccc2c(c1)OCO2",
    "category label": "False"
  },
  {
    "molecule": "CCCCN(CCCC)CCCC",
    "category label": "False"
  }
]

Hey, what did the test say about Cc1cccc([N+](=O)[O-])c1C ? False

Hey, what did the test say about CN1CCN(Cc2cc(-c3ccc4[nH]c(=O)oc4c3)co2)[C@@H](c2ccc(F)cc2)C1 ? True

Hey, what did the test say about Clc1cc(Cl)c(Cl)cc1Cl ? False

Hey, what did the test say about CN1CCCC1=O ? False

Hey, what did the test say about C=CCc1ccc(O)c(OC)c1 ? False

Hey, what did the test say about C[C@]12C=CC(=O)C=C1CC[C@@H]1[C@@H]2C(=O)C[C@@]2(C)[C@H]1CC[C@]2(O)C(=O)CO ? False
